Values from the RNAGym collection of RNA variant scans (doi:10.1101/gr.219683.116)

B1: mRNA-splicing (parent)
chain: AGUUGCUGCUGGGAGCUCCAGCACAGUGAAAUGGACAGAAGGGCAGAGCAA

- Variants of: B1
- protocol: exon inclusion enrichment index; higher = more inclusion; WT1 exon 5 minigene, HEK293
Entries and their exon inclusion enrichment index
No unit in the answer, only the number.

Recorded results for 3 variants are shown here.
{"mutantDesignation": "C6A U7C C9A U10C A30U", "quantitativeResult": 2.51}
{"mutantDesignation": "G5A C6U U7A G8U C9A C22G A23G", "quantitativeResult": 0.0166}
{"mutantDesignation": "G5U G8U C9U A20G", "quantitativeResult": 0.322}

Next variant, exon inclusion enrichment index to be filled in.
Enquiry: Given the entry G5A C6G U7G C9A G41U , report its measured exon inclusion enrichment index.
Return: 0.000489
